tested on: UACC-62; test: NCI tumour cell line growth inhibition, 48 h
Calls of active or inactive are those of the source. Rule as the data show it: active = GI50 up to about 1.1 µM and inactive = higher.
PROPERTY_NAME: GI50

[[record]]
compound = "N=C(N)N/N=C/c1c(-c2ccc(Cl)cc2)nc2n1CCS2"
result = "11.9 µM (inactive)"

[[record]]
compound = "O=c1c2ncn(C3CCCO3)c2n(-c2ccccc2)c(=S)n1-c1ccccc1 (stereo not drawn)"
result = "> 100 µM (inactive)"

[[record]]
compound = "COC(OC)C(C)CC(=O)N(C)C (stereo not drawn)"
result = "> 100 µM (inactive)"

[[record]]
compound = "CCOC(=O)C1C=C2O[C@@H]3OC4(CCCCC4)O[C@@H]3C2C2C(=O)CCC(=O)[C@@]12C(=O)OC (stereo partly drawn)"
result = "> 100 µM (inactive)"


The compound COc1cc(C(c2cc(OC)c(OC)c(OC)c2)N2C(=O)CCC2C(=O)O)cc(OC)c1OC (stereo not drawn) , when measured on UACC-62, yielded GI50 of > 100 µM (inactive)

The compound C=C1CC(C)(COc2ccc3c(C)c(Cl)c(=O)oc3c2)OC1=O (stereo not drawn) , when measured on UACC-62, yielded GI50 of 1.39 µM (inactive)

The compound CC1CCC2(OC1)OC1CC3C4CCC5CC(O)CCC5(C)C4CC(=O)OC3(C)C1C2C (stereo not drawn) , when measured on UACC-62, yielded GI50 of > 100 µM (inactive)

The compound CC1OC(OC2C(OC(=O)[C@]34CCC(C)(C)C[C@H]3C3=CC[C@@H]5[C@@]6(C)CC[C@H](OC7OC(CO)C(O)C(O)C7OC7OC(CO)C(O)C(O)C7O)C(C)(C)[C@@H]6CC[C@@]5(C)[C@]3(C)CC4)OCC(O)C2O)C(O)C(OC2OCC(O)C(O)C2O)C1OC1OCC(O)C(OC2OCC(O)C(O)C2O)C1O (stereo partly drawn) , when measured on UACC-62, yielded GI50 of 13.5 µM (inactive)

###

test system: UACC-257; assay: NCI tumour cell line growth inhibition, 48 h
The source made the active and inactive calls. No stated cut-off is given here; in the data, active = GI50 up to about 1.1 µM and inactive = higher.
# GI50 per record follows

Here is how some molecules turned out for GI50.
[[record]]
molecule = "CC1CCC2(OC1)OC1CC3C4CCC5CC(O)CCC5(C)C4CC(=O)OC3(C)C1C2C (centres undefined)"
tested_system = "UACC-257"
result = "> 100 µM (inactive)"

[[record]]
molecule = "COc1ccc(-c2cc(O)c3cccnc3n2)cc1"
tested_system = "UACC-257"
result = "26.2 µM (inactive)"

[[record]]
molecule = "c1ccc(-c2c3c(nc4c2CC[C@H]4NC2=NCCN2)[C@@H](NC2=NCCN2)CC3)cc1"
tested_system = "UACC-257"
result = "> 90.6 µM (inactive)"

[[record]]
molecule = "N=C(NC(=N)Nc1ccc(S(=O)(=O)Nc2cnc3ccccc3n2)cc1)Nc1ccc(Br)cc1"
tested_system = "UACC-257"
result = "> 100 µM (inactive)"


// field: GI50; key: "Cc1ccc2nnc(NS(=O)(=O)c3cc(C)c(Cl)cc3S)n2n1" ; value = > 100 µM (inactive)

// field: GI50; key: "C[C@H](CCC(=O)O)[C@H]1CC[C@H]2[C@@H]3[C@@H](O)C[C@@H]4C[C@H](O)CC[C@]4(C)[C@H]3C[C@H](O)[C@]12C" ; value = > 100 µM (inactive)

// field: GI50; key: "C=CC(=O)N1C/C(=C\c2ccc(Cl)c(Cl)c2)C(=O)/C(=C/c2ccc(Cl)c(Cl)c2)C1" ; value = 0.474 µM (active)

// field: GI50; key: FC1=C2C3CCC(C3)C2C1(F)F (centres undefined) ; value = > 100 µM (inactive)

// field: GI50; key: O=C1/C(=C\c2cccc(Oc3ccccc3)c2)S(=O)(=O)C(c2ccccc2)N1c1cc(Cl)ccc1Cl (centres undefined) ; value = 19.9 µM (inactive)

###

test system: SK-MEL-28; experiment: NCI tumour cell line growth inhibition, 48 h
Active and inactive are the calls of the source. No stated cut-off is given here; in the data, active = GI50 up to about 1.1 µM and inactive = higher.
Could you please pick one outcome from this set? active, inactive

Check out these entries, answers already filled in.
[[record]]
molecule = "COc1ccc(C2(C3c4cc(OC)c(OC)cc4CCN3C)SCCCS2)cc1O (stereo unspecified)"
answer_label = "inactive"

[[record]]
molecule = "O=C(O)C1SCCS1"
answer_label = "inactive"

[[record]]
molecule = "O=C1OC(CC(=O)c2ccc(F)cc2)C(Cl)=C1Cl (stereo unspecified)"
answer_label = "inactive"

[[record]]
molecule = "Nc1ccn(CCNCCn2cnc3nc(N)[nH]c(=O)c32)c(=O)n1"
answer_label = "inactive"

[[record]]
molecule = "O=C(c1ccccc1)c1c(CC(O)c2ccncc2)n(C(=O)c2ccccc2)c2ccccc12 (stereo unspecified)"
answer_label = "inactive"

[[record]]
molecule = "COc1ccc(Sc2ccccc2[N+](=O)[O-])cc1"
answer_label = "inactive"

[[record]]
molecule = "COc1ccc2c(c1)C(=O)C(=O)c1cc(O)c(OC)c(OC)c1-2"
answer_label = "active"

[[record]]
molecule = "O=C(O)CCc1nc2c(n1Cc1ccccc1)C(=O)c1ccccc1C2=O"
answer_label = "inactive"


Per the records of this test, what outcome belongs to "N#Cc1sc2c(c1O)c(=O)n(-c1ccccc1)c(=S)n2-c1ccccc1" ?
inactive

Per the records of this test, what outcome belongs to "C[C@]12CC[C@H]3[C@@H](CCC4=CC(=O)CC[C@@H]43)[C@@H]1CC[C@]2(O)C(N)=O" ?
inactive

Per the records of this test, what outcome belongs to "NCCCNCCCCN1CCOC1=O" ?
inactive

###

test system: A549; assay: NCI tumour cell line growth inhibition, 48 h
Activity calls are given as the source filed them. Cut-off read from the data, not from the text of the source: active = GI50 up to about 1.1 µM and inactive = higher. Residues, ends and D or L forms follow the SMILES beside them. *: point of attachment. Fmoc = O=C(OCC1c2ccccc2-c2ccccc21)*; Boc = CC(C)(C)OC(=O)*
# GI50 per record follows

Here is how some compounds turned out for GI50.
[[record]]
compound = "Cc1nn(C(=O)Cc2ccccc2)c2c1C(c1ccccc1O)SC(=N)N2 (centres undefined)"
result = "> 100 µM (inactive)"

[[record]]
compound = "COc1ccc2c(=O)c(-c3cc4c(cc3OC)OCO4)coc2c1"
result = "> 100 µM (inactive)"

[[record]]
compound = "CNC1C(OC2C(OC3C(O)C(O)C(O)C(O)C3O)OC(C)C2(O)CO)OC(CO)C(O)C1O.N=C(N)N.NC(=O)O (centres undefined)"
result = "> 100 µM (inactive)"


// field: GI50; key: "Nc1ccn(CCNCCn2cnc3nc(N)[nH]c(=O)c32)c(=O)n1" ; value = > 100 µM (inactive)

// field: GI50; key: Cc1cc2ncn(C3CCCO3)c2cc1C (centres undefined) ; value = > 100 µM (inactive)

// field: GI50; key: Cc1cc2c(c3oc(C4(C)OC4C4OC4C)cc(=O)c13)C(=O)c1c(O)c(C3CC(C)(N(C)C)C(O)C(C)O3)cc(C3CC(N(C)C)C(O)C(C)O3)c1C2=O (centres undefined) ; value = 0.0025 µM (active)

// field: GI50; key: "NNc1[nH]c(=S)[nH]c1C(N)=O" ; value = > 100 µM (inactive)

// field: GI50; key: "COc1ccccc1NC(=O)CC(=O)N/N=C/c1ccc(N(CCC#N)S(=O)(=O)c2ccccc2)cc1" ; value = > 100 µM (inactive)

// field: GI50; key: CC(C)(C)OC(=O)NCCCCC(NC(=O)C(Cc1c[nH]c2ccccc12)NC(=O)OCC1c2ccccc2-c2ccccc21)C(=O)N1CCCC1C(=O)NCC(N)=O (centres undefined) (Fmoc-WK(Boc)PG-NH2; configuration not given here) ; value = > 100 µM (inactive)

// field: GI50; key: "Cc1ccc([N+](=O)[O-])cc1NC(=O)C(=O)Cc1nc2ccc(C(=O)c3ccccc3)cc2nc1O" ; value = > 100 µM (inactive)

###

tested on: DLD-1; assay: NCI tumour cell line growth inhibition, 48 h
The source made the active and inactive calls. No stated cut-off is given here; in the data, active = GI50 up to about 1.1 µM and inactive = higher.
Could you please pick one outcome from this set? y for active, n for inactive

[[record]]
molecule = "COc1cccc(/C(C=O)=C(\\Cl)c2ccc(OC)c(OC)c2)c1"
answer_label = "n"

[[record]]
molecule = "CC(=O)O[C@H]1C=CC23OC(=O)[C@]1(C)[C@H]2[C@H](C(=O)O)C12CC(=O)[C@@](CO)(CC[C@H]13)C2"
answer_label = "n"

[[record]]
molecule = "C=CC(=O)N1C/C(=C\\c2ccc(Cl)c(Cl)c2)C(=O)/C(=C/c2ccc(Cl)c(Cl)c2)C1"
answer_label = "y"

[[record]]
molecule = "O=C(/C=C/c1ccc(OCCCOc2ccc(/C=C/C(=O)c3ccc(Cl)cc3)cc2)cc1)c1ccc(Cl)cc1"
answer_label = "n"

[[record]]
molecule = "COc1cccc(NC(=O)C(=O)C2C=CCS2(=O)=O)c1 (configuration not stated)"
answer_label = "n"

[[record]]
molecule = "COc1cc(C(O)C(=O)c2nc3ccc([N+](=O)[O-])cc3nc2O)ccc1O (configuration not stated)"
answer_label = "n"

[[record]]
molecule = "Cc1ccc(S(=O)OC2C3CC4CC(C3)CC2C4)cc1 (configuration not stated)"
answer_label = "n"

[[record]]
molecule = "C/C(=N\\NC(=O)C[N+](C)(C)C)c1sc(-c2cccnc2)nc1C"
answer_label = "n"

[[record]]
molecule = "Cn1c(=O)c2/c(n(C)c1=O)=N\\C=c1\\c(=O)n(C)c(=O)n(C)\\c1=N\\C=2"
answer_label = "n"

[[record]]
molecule = "COc1cc2c(c(OC)c1OC)-c1ccc(OC)c(=O)cc1[C@@H](NC(C)=O)CC2 [COLCHICINE]"
answer_label = "y"


Per the records of this test, what outcome belongs to O=C(CC(C(=O)c1ccsc1)c1cccs1)c1cccs1 (configuration not stated) ?
n

Per the records of this test, what outcome belongs to CCCCN(CCCC)CC(C(=O)Nc1ccc([N+](=O)[O-])cc1[N+](=O)[O-])/C(C)=N\NC(=O)c1ccncc1 (configuration not stated) ?
n

Per the records of this test, what outcome belongs to CN(C)CC1CCCCCCCCCC(CN(C)C)C1=O (configuration not stated) ?
n

Per the records of this test, what outcome belongs to "N=C(NC(=N)Nc1ccc(S(=O)(=O)Nc2cnc3ccccc3n2)cc1)Nc1ccc(Br)cc1" ?
n

Per the records of this test, what outcome belongs to "O=C(CCC(=O)Nc1ccc(Cl)c(Cl)c1)CC(=O)c1ccc2ccccc2c1" ?
n

Per the records of this test, what outcome belongs to "Cn1c2ccccc2c2cc(-c3ccccc3)c3c(c21)C(=O)c1ccccc1C3=O" ?
n

Per the records of this test, what outcome belongs to COc1cccc2c1C(=O)c1c(O)c3c(c(O)c1C2=O)C[C@](O)(C(=O)CO)CC3OC1CC(N)C(OC2CCCCO2)C(C)O1 (some centres not stated) ?
y
